- experimental-conditions: 298.15 K; 101.33 kPa; Liquid

compound: C[S+](C)[O-] [dimethyl sulfoxide]
mass density (kg/m3): 1095.62

compound: Cc1ccccc1C [1,2-dimethylbenzene]
mass density (kg/m3): 875.73

compound: Cc1ccc(C)cc1 [1,4-dimethylbenzene]
mass density (kg/m3): 856.58

compound: Cc1cccc(C)c1 [1,3-dimethylbenzene]
mass density (kg/m3): 859.83

====

- assay: refractive index (Na D-line) (dimensionless)
- experimental-conditions: 293.15 K; 101.33 kPa; Liquid; Standard Abbe refractometry
Attribute: refractive index

compound: C[S+](C)[O-] [dimethyl sulfoxide]
refractive index: 1.4785
--
compound: Cc1ccccc1C [1,2-dimethylbenzene]
refractive index: 1.5057
--
compound: Cc1cccc(C)c1 [1,3-dimethylbenzene]
refractive index: 1.4973
--
compound: Cc1ccc(C)cc1 [1,4-dimethylbenzene]
refractive index: 1.49577
